Assay: Solubility
observation_type: log10 of solubility (log10 of the value in µM)

smiles_notation	log10 of solubility
O=C(Nc1ccc(F)cc1)c1ccn2ncc(-c3cnc4[nH]ccc4c3)c2c1	-0.52
CNCc1ccc(NC(=O)c2ccn3ncc(-c4cnc5[nH]ccc5c4)c3c2)cc1	2.22
CNCc1ccc(NC(=O)c2ccc3ncc(-c4cnc5[nH]ccc5c4)n3c2)cc1	2.09
CNC(=O)c1ccn2ncc(-c3cnc4[nH]ccc4c3)c2c1	1.05
CN(C)C(=O)c1cc(NC(=O)c2cc3c(-c4cnc5[nH]ccc5c4)cccc3s2)ccn1	0.30
O=C(Nc1cccc(C(=O)N2CCCCC2)c1)c1cc2c(-c3cnc4[nH]ccc4c3)cccc2s1	0.20
CN(C)C(=O)c1cc(NC(=O)c2ccc3ncc(-c4cnc5[nH]ccc5c4)n3c2)ccc1O	0.99

====

Test: Pharmacokinetics after intraperitoneal administration in mice
Type: in vivo
Details: mouse, ip, 50 mg/kg, plasma

smiles_notation	CL/F
CN(C)C(=O)c1cc(NC(=O)c2cc3c(-c4cnc5[nH]ccc5c4)cccc3s2)ccc1O	14.7 L/h/kg

====

Assay: Pharmacokinetics after intraperitoneal administration in mice
Assay type: in vivo
Settings: mouse, plasma, ip, 50 mg/kg, read-out: T1/2 (converted)

smiles_notation	unit_name	half-life
CN(C)C(=O)c1cc(NC(=O)c2cc3c(-c4cnc5[nH]ccc5c4)cccc3s2)ccc1O	h	14.2

====

Catalogue of compounds with associated Ki
Target: JNK1 (Homo sapiens, UniProt P45983)
Sequence (P45983 whole entry): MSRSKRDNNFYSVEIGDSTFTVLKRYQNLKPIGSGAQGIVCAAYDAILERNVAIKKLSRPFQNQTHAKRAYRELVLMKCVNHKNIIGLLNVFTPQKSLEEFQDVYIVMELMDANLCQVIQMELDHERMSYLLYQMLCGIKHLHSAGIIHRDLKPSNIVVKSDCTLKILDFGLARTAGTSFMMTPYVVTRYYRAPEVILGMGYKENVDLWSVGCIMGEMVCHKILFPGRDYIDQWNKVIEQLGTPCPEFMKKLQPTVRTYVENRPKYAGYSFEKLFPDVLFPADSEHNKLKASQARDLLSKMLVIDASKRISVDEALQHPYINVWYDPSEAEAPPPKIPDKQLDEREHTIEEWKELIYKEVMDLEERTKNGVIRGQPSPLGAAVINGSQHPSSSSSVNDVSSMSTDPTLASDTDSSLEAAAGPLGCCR

compound	Ki (nM)
CNC(=O)CN1[C@H](CC(=O)NCCCN(C)c2ccc(F)cc2)CNC[C@H]1C	860
N#CC(c1ccnc(OCc2ccc(CN3CCOCC3)cc2)n1)c1nc2ccccc2s1 (centres unmarked)	220

====

Target: ERK1 (Homo sapiens)
Sequence (P27361 whole entry): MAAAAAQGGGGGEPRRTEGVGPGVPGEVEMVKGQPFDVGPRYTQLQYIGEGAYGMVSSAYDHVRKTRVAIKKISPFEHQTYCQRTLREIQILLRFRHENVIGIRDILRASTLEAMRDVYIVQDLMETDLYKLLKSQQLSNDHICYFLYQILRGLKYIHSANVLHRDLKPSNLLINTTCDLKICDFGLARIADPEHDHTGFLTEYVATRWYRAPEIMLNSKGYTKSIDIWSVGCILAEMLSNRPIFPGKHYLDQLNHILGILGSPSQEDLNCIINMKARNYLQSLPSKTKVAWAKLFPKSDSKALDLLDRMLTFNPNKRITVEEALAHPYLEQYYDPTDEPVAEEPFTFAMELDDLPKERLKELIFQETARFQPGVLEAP
pKd: −log10 of the molar value.
observation_type: pKd

smiles_notation	quantitative_result
CN(C)C(=O)c1cc(NC(=O)c2cc3c(-c4cnc5[nH]ccc5c4)cccc3s2)ccc1O	6.04

====

Target: JNK3 (MAPK10) (Homo sapiens, UniProt P53779)
Construct: purchased Eurofins (KdSelect service)
Sequence (P53779 whole entry): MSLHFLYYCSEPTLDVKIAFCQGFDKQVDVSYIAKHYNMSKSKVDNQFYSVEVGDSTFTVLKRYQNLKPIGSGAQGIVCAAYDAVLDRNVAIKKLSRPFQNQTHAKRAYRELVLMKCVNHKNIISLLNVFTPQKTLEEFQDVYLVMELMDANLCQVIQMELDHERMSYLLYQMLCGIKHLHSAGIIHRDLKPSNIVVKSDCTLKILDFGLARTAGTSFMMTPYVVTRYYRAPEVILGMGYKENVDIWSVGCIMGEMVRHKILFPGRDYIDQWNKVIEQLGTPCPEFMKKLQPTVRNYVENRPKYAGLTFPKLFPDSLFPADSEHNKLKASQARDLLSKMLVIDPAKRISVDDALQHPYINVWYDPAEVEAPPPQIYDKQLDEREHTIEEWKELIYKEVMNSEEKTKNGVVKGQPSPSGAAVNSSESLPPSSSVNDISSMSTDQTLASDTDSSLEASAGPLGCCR
Test: Eurofins KdSelect, JNK3 (MAPK10)
Assay type: binding
Conditions: Table 2; IC50 nM; read-out: JNK3 (MAPK10), based on Kd select results

molecule	Kd [nM]
N#CC(c1ccnc(OCc2ccc(CN3CCOCC3)cc2)n1)c1nc2ccccc2s1 (stereo not shown)	130

====

Catalogue of compounds with associated half-life
Experiment: In vitro metabolism in mouse liver microsomes
Conditions: mouse, microsomes

smiles_notation	half-life (min)
CNCc1ccc(NC(=O)c2cc3c(-c4cnc5[nH]ccc5c4)cccc3s2)cc1	117
CN(C)Cc1ccc(NC(=O)c2ccn3ncc(-c4cnc5[nH]ccc5c4)c3c2)cc1	16.6
CNCc1ccc(NC(=O)c2ccn3ncc(-c4cncc5ccccc45)c3c2)cc1	33.1
CN(C)C(=O)c1cc(NC(=O)c2cc3c(-c4cnc5[nH]ccc5c4)cccc3s2)ccn1	66.7

====

Experiment: Pharmacokinetics after oral administration in mice
Assay type: in vivo
Details: mouse, 50 mg/kg, plasma

smiles_notation	AUC(0-inf) / µM·h
CN(C)C(=O)c1cc(NC(=O)c2cc3c(-c4cnc5[nH]ccc5c4)cccc3s2)ccc1O	3.03

====

Assay: Pharmacokinetics after intraperitoneal administration in mice
Format: in vivo
Settings: mouse, ip, 50 mg/kg, plasma

compound	AUC(0-inf)
CN(C)C(=O)c1cc(NC(=O)c2cc3c(-c4cnc5[nH]ccc5c4)cccc3s2)ccc1O [CDD-2728]	8.03 µM·h

====

Biological target: UniProt P45984
Sequence (P45984 whole entry): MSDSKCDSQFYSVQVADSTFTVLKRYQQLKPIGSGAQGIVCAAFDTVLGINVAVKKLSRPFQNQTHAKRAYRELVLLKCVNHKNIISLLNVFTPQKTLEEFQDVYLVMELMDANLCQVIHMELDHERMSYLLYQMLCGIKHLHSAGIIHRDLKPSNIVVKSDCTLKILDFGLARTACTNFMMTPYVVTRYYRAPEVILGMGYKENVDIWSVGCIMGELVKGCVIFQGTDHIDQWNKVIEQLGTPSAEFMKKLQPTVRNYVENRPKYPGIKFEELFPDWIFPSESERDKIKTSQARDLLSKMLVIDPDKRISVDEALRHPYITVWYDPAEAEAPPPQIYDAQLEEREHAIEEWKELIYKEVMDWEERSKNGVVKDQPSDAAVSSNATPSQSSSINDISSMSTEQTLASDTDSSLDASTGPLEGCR
Experiment: JNK2 kinase (intrinsic ATPase, Kinase-Glo) assay
Type: biochemical
Conditions: Table 3a; read-out: Kd JNK2
pKd: −log10 of the molar value.
Catalogue of compounds with associated pKd

compound	pKd
CN(C)C(=O)c1cc(NC(=O)c2cc3c(-c4cnc5[nH]ccc5c4)cncc3s2)ccc1O [CDD-3111]	9.14
CN(C)Cc1ccc(NC(=O)c2ccn3ncc(-c4cnc5[nH]ccc5c4)c3c2)cc1 [CDD-2482]	9.13
CN(C)C(=O)c1cc(NC(=O)c2cc3c(-c4cnc5[nH]ccc5c4)cccc3s2)ccc1F [CDD-2730]	8.27
O=C(Nc1cccc(C(=O)N2CCCCC2)c1)c1cc2c(-c3cnc4[nH]ccc4c3)cccc2s1 [CDD-2630]	8.61
CN(C)C(=O)c1cc(NC(=O)c2cc3c(-c4cnc5[nH]ncc5c4)cccc3s2)ccc1O [CDD-3018]	7.94
CNCc1ccc(NC(=O)c2ccc3ncc(-c4cnc5[nH]ccc5c4)n3c2)cc1 [CDD-2488]	8.51
CNC(=O)c1cc(NC(=O)c2cc3c(-c4cnc5[nH]ccc5c4)cccc3s2)ccc1O [CDD-3087]	7.94
Cc1ccc(NC(=O)c2ccn3ncc(-c4cnc5[nH]ccc5c4)c3c2)cc1 [CDD-2288]	8.79
O=C(c1cc2c(-c3cnc4[nH]ccc4c3)cccc2s1)N1CCN(c2ccccc2)C(=O)C1 [CDD-3116]	6.35
CN(C)CCNC(=O)c1cc(NC(=O)c2cc3c(-c4cnc5[nH]ccc5c4)cccc3s2)ccc1O [CDD-3086]	8.22
CN(C)C(=O)c1cccc(NC(=O)c2cc3c(-c4cnc5[nH]ccc5c4)cccc3s2)c1 [CDD-2632]	8.46
CN(C)C(=O)c1cc(NC(=O)c2cc3c(-c4cnc5[nH]ccc5c4)cccc3o2)ccc1O [CDD-2855]	7.91
CNC(=O)c1ccn2ncc(-c3cnc4[nH]ccc4c3)c2c1 [CDD-2574]	7.90
CN(C)C(=O)c1cc(NC(=O)c2nc3c(-c4cnc5[nH]ccc5c4)cccc3s2)ccc1O [CDD-2856]	8.50
CNCc1ccc(NC(=O)c2ccn3ncc(-c4cnc5[nH]ccc5c4)c3c2)cc1 [CDD-2346]	9.03
CN(C)C(=O)c1ccc(O)c(NC(=O)c2cc3c(-c4cnc5[nH]ccc5c4)cccc3s2)c1 [CDD-2938]	8.91
CN(C)CCNC(=O)c1cc2c(-c3cnc4[nH]ccc4c3)cccc2s1 [CDD-3085]	7.37
CN(C)C(=O)c1cc(NC(=O)c2ccc3ncc(-c4cnc5[nH]ccc5c4)n3c2)ccc1O [CDD-3016]	8.24
CN(C)C(=O)c1cc(NC(=O)c2cc3c(-c4cnc5[nH]ccc5c4)cccc3s2)ccc1OC(F)(F)F [CDD-2857]	7.30
O=C(Nc1ccc2c(c1)C(=O)NC2)c1cc2c(-c3cnc4[nH]ccc4c3)cccc2s1 [CDD-3115]	8.20
O=C(Nc1cncnc1)c1cc2c(-c3cnc4[nH]ccc4c3)cccc2s1 [CDD-3015]	8.16
O=C(Nc1ccccc1)c1ccn2ncc(-c3cnc4[nH]ccc4c3)c2c1 [CDD-2485]	9.02
CNC(=O)c1ccc(NC(=O)c2ccn3ncc(-c4cnc5[nH]ccc5c4)c3c2)cc1 [CDD-2461]	9.49
COc1ccc(NC(=O)c2cc3c(-c4cnc5[nH]cc(C)c5c4)cccc3s2)cc1C(=O)N(C)C [CDD-2731]	8.89
Cc1c[nH]c2ncc(-c3cccc4sc(C(=O)Nc5ccc(O)c(C(=O)N(C)C)c5)cc34)cc12 [CDD-3017]	8.65
COc1ccc(NC(=O)c2cc3c(-c4cnc5[nH]ccc5c4)cccc3s2)cc1C(=O)N(C)C [CDD-2628]	8.80
CN(C)C(=O)c1cc(NC(=O)c2cc3c(-c4cnc5[nH]ccc5c4)cccc3s2)ccn1 [CDD-3012]	8.32
CNCc1ccc(NC(=O)c2ccn3ncc(-c4cncc5ccccc45)c3c2)cc1 [CDD-2347]	8.77
O=C(Nc1ccc(O)c(C(=O)NC2COC2)c1)c1cc2c(-c3cnc4[nH]ccc4c3)cccc2s1 [CDD-3112]	7.87

====

Entries with reported Kd on hVPS34 (Homo sapiens)
Sequence (Q8NEB9 whole entry): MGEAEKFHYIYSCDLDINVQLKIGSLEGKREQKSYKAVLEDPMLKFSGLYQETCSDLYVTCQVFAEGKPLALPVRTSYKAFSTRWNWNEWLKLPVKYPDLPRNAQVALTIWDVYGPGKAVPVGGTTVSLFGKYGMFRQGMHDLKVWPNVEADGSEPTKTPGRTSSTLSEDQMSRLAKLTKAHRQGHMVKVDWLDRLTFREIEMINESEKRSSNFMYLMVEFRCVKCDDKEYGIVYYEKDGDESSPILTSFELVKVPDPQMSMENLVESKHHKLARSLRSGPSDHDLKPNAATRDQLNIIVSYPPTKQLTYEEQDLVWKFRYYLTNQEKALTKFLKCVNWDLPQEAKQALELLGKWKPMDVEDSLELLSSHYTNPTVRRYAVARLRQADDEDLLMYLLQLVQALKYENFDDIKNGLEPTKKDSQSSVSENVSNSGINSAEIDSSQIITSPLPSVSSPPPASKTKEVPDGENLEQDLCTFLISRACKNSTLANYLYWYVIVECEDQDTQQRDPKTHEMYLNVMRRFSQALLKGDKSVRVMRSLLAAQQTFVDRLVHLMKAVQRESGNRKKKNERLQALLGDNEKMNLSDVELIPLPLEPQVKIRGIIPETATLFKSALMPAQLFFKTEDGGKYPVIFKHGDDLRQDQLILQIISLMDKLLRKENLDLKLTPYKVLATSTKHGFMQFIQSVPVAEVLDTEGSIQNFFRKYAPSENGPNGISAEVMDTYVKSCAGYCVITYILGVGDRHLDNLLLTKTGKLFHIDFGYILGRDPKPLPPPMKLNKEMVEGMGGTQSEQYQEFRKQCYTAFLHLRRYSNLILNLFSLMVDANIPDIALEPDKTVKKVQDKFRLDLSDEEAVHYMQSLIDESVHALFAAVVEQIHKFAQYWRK
observation_type: Kd (nM)

smiles_notation	test_system	unit_name	quantitative_result
CN(C)Cc1ccc(NC(=O)c2ccn3ncc(-c4cnc5[nH]ccc5c4)c3c2)cc1	hVPS34 (Homo sapiens)	nM	255
CNCc1ccc(NC(=O)c2ccn3ncc(-c4cnc5[nH]ccc5c4)c3c2)cc1	hVPS34 (Homo sapiens)	nM	109
CNCc1ccc(NC(=O)c2ccn3ncc(-c4cncc5ccccc45)c3c2)cc1	hVPS34 (Homo sapiens)	nM	776
COc1ccc(NC(=O)c2cc3c(-c4cnc5[nH]ccc5c4)cccc3s2)cc1C(=O)N1CCCCC1	hVPS34 (Homo sapiens)	nM	38000

====

Assay: In vitro metabolism in human liver microsomes
Settings: human, microsomes
observation_type: half-life (h)

compound	observation_type	quantitative_result
CNC(=O)c1ccn2ncc(-c3cnc4[nH]ccc4c3)c2c1 [CDD-2574]	half-life	0.608
Cc1c[nH]c2ncc(-c3cccc4sc(C(=O)Nc5ccc(O)c(C(=O)N(C)C)c5)cc34)cc12 [CDD-3017]	half-life	5.97
O=C(Nc1ccc(O)c(C(=O)NC2COC2)c1)c1cc2c(-c3cnc4[nH]ccc4c3)cccc2s1 [CDD-3112]	half-life	1.65
CN(C)C(=O)c1ccc(O)c(NC(=O)c2cc3c(-c4cnc5[nH]ccc5c4)cccc3s2)c1 [CDD-2938]	half-life	0.405
O=C(Nc1ccc(O)c(C(=O)N2CCC2)c1)c1cc2c(-c3cnc4[nH]ccc4c3)cccc2s1 [CDD-3014]	half-life	2.93
CNCc1ccc(NC(=O)c2ccn3ncc(-c4cnc5[nH]ccc5c4)c3c2)cc1 [CDD-2346]	half-life	3.14
CN(C)C(=O)c1cc(NC(=O)c2cc3c(-c4cnc5[nH]ccc5c4)cncc3s2)ccc1O [CDD-3111]	half-life	2.22
COc1ccc(NC(=O)c2cc3c(-c4cnc5[nH]ccc5c4)cccc3s2)cc1C(=O)N1CCOCC1 [CDD-2635]	half-life	1.24
COc1ccc(NC(=O)c2cc3c(-c4cnc5[nH]ccc5c4)cccc3s2)cc1C(=O)N1CCN(C)CC1 [CDD-2636]	half-life	0.267
O=C(Nc1ccc(F)cc1)c1ccn2ncc(-c3cnc4[nH]ccc4c3)c2c1 [CDD-2486]	half-life	0.565
O=C(Nc1cccc(C(=O)N2CCCCC2)c1)c1cc2c(-c3cnc4[nH]ccc4c3)cccc2s1 [CDD-2630]	half-life	0.303
CNCc1ccc(NC(=O)c2ccc3ncc(-c4cnc5[nH]ccc5c4)n3c2)cc1 [CDD-2488]	half-life	1.99
CN(C)C(=O)c1cc(NC(=O)c2nc3c(-c4cnc5[nH]ccc5c4)cccc3s2)ccc1O [CDD-2856]	half-life	3.75
CN(C)C(=O)c1cc(NC(=O)c2cc3c(-c4cnc5[nH]ccc5c4)cccc3s2)ccc1OC(F)(F)F [CDD-2857]	half-life	2.88
CNCc1ccc(NC(=O)c2cc3c(-c4cnc5[nH]ccc5c4)cccc3s2)cc1 [CDD-2575]	half-life	6.81
CN(C)C(=O)c1cc(NC(=O)c2cc3c(-c4cnc5[nH]ncc5c4)cccc3s2)ccc1O [CDD-3018]	half-life	8.85
